This section presents molecules with their documented IC50 values.
test.target: hP2X3 (human Purinergic P2X receptors subtype 3), clone B (Homo sapiens)
Sequence (P56373 whole entry): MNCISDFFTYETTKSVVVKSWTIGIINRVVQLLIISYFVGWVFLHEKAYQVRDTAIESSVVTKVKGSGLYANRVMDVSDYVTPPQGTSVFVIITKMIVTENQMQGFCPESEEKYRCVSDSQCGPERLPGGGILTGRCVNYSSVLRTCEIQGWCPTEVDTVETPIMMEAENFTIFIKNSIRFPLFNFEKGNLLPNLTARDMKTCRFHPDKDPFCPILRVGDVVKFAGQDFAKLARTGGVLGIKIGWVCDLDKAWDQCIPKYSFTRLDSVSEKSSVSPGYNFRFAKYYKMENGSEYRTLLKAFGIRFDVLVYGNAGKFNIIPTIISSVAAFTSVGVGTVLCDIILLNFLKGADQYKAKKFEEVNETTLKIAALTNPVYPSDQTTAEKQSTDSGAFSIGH
protocol: hP2X3 FLIPR calcium (Fluo-4) antagonist assay, clone B
study.conditions: Human P2X3 FLIPR Clone B IC50 (nM), RLE cells expressing hP2X3 clone B (NM_002559); agonist 500 nM α,β-methylene-ATP
Number in nM, nothing else.

molecule	IC50 / nM
COc1ccc(CNc2nc(N3CCN(C(C)=O)CC3)nc3c2CN(C(C)C)C3=O)c2cccnc12	1500

Prompt: Look up and state reported IC50 for COCCNc1nc(NC(c2ccccc2)c2ccc(C)cc2)c2c(n1)C(=O)N(C(C)C)C2 (stereo not shown)
Response: 210

Prompt: Look up and state reported IC50 for CC(=O)N1CCN(c2nc3c(c(N(Cc4cc5ccccc5cn4)CC4CC4)n2)CN(C(C)C)C3=O)CC1
Response: 63

Prompt: Look up and state reported IC50 for CNCCNc1nc(NCC(c2ccccc2)c2ccccc2)c2c(n1)C(=O)N(C(C)C)C2
Response: 7200
